So I've got AC50 readings for Sodium-dependent dopamine transporter (Homo sapiens, UniProt Q01959), take a look.

Data request: I have this molecule here, NC[C@H]1CC[C@H](C(=O)O)CC1 , and I need its recorded AC50.
Data returned: > 10 µM

---

So I've got AC50 readings for Motilin receptor (Homo sapiens), take a look.

Reference set (5 entries):
# Molecule, Experimental target, Obs value
data = [
    ("CN(C/C=C/c1ccccc1)Cc1cccc2ccccc12", "Motilin receptor (Homo sapiens)", "> 10 µM"),
    ("CC(C)C(=O)Nc1ccc([N+](=O)[O-])c(C(F)(F)F)c1 [FLUTAMIDE]", "Motilin receptor (Homo sapiens)", "> 30 µM"),
    ("CN(CCOc1ccc(NS(C)(=O)=O)cc1)CCc1ccc(NS(C)(=O)=O)cc1 [DOFETILIDE]", "Motilin receptor (Homo sapiens)", "> 10 µM"),
    ("CCCC(=O)N1CCCN(c2nc(N)c3cc(OC)c(OC)cc3n2)CC1", "Motilin receptor (Homo sapiens)", "> 30 µM"),
    ("CN1C(=O)CC(=O)N(c2ccccc2)c2cc(Cl)ccc21", "Motilin receptor (Homo sapiens)", "> 10 µM"),
]

Data request: I have this molecule here, CNC(=O)c1cc(Oc2ccc(NC(=O)Nc3ccc(Cl)c(C(F)(F)F)c3)cc2)ccn1 , and I need its recorded AC50.
Data returned: 2.8 µM

Data request: One more molecule: CS(=O)(=O)c1ccc([C@@H](O)[C@@H](CO)NC(=O)C(Cl)Cl)cc1
Data returned: > 30 µM

Data request: One more molecule: CCCCOc1cc(C(=O)NCCN(CC)CC)c2ccccc2n1
Data returned: > 30 µM

Data request: One more molecule: COc1ccc2cccc(CCNC(C)=O)c2c1
Data returned: > 10 µM

Data request: One more molecule: C1=Cc2cccc(OCC3CNCCO3)c2C1 (stereo not given)
Data returned: > 30 µM

Data request: One more molecule: COC(=O)C1=C(C)NC(C)=C(C(=O)OCC(C)C)C1c1ccccc1[N+](=O)[O-] (stereo not given)
Data returned: > 10 µM

---

So I've got AC50 readings for D(1A) dopamine receptor (Homo sapiens, UniProt P21728), take a look.

Reference set (2 entries):
# Compound, AC50
records = [
    ("CC(C)NCC(O)COc1ccc(COCCOC(C)C)cc1 (stereo not given) [BISOPROLOL]", "> 10 µM"),
    ("CCc1ccc(CCOc2ccc(CC3SC(=O)NC3=O)cc2)nc1 (stereo not given) [PIOGLITAZONE]", "> 10 µM"),
]

Data request: I have this compound here, NC(=O)c1cnccn1 [PYRAZINAMIDE] , and I need its recorded AC50.
Data returned: > 10 µM

Data request: One more compound: Oc1ncnc2[nH]ncc12 [ALLOPURINOL]
Data returned: > 10 µM

Data request: One more compound: O=C(O)CCn1c2c(c3ccccc31)C[C@H](NS(=O)(=O)c1ccc(F)cc1)CC2 [RAMATROBAN]
Data returned: 6.01 µM

Data request: One more compound: Cc1c(C(=O)Nc2ccc(N3C[C@@H](C)O[C@@H](C)C3)nc2)cccc1-c1ccc(OC(F)(F)F)cc1 [SONIDEGIB]
Data returned: > 10 µM

Data request: One more compound: COC(=O)C1=C(C)NC(C)=C(C(=O)OC)C1c1ccccc1[N+](=O)[O-] [NIFEDIPINE]
Data returned: > 10 µM

Data request: One more compound: O=C1CCC(N2C(=O)c3ccccc3C2=O)C(=O)N1 (stereo not given) [THALIDOMIDE]
Data returned: > 10 µM

Data request: One more compound: CCCCCN(C)CCC(O)(P(=O)(O)O)P(=O)(O)O [IBANDRONIC ACID]
Data returned: > 10 µM

Data request: One more compound: CN(C)CCCN1c2ccccc2Sc2ccccc21 [PROMAZINE]
Data returned: 1.08 µM
